Test details: Plasma protein binding in rat assessed as unbound fraction
Format: ADME, cell-free
Measure: fraction unbound

{"Smiles notation": "[2H]C([2H])([2H])NC1=NC(=O)[C@]2(CCc3ncccc32)c2cc(C(C)(F)F)ccc21", "fraction unbound": 0.373}
{"Smiles notation": "[2H]C([2H])([2H])NC1=NC(=O)[C@]2(CCc3ncccc32)c2cc(C(F)(F)F)ccc21", "fraction unbound": 0.412}

====

Target desc: Cytochrome P450 2C19 (Homo sapiens)
Sequence (P33261 whole entry): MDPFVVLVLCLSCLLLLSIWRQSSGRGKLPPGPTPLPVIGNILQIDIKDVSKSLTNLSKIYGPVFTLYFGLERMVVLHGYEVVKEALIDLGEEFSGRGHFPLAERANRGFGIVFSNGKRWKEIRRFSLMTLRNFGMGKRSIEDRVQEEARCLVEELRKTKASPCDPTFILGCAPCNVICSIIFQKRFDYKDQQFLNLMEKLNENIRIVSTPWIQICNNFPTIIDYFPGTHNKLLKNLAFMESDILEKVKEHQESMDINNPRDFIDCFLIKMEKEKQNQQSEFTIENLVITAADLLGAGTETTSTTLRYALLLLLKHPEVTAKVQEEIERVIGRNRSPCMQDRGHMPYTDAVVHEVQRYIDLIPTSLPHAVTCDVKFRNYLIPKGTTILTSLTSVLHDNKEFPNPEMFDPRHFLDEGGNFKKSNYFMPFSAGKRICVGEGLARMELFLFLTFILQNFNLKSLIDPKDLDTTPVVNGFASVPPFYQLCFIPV
pIC50: −log10 of the molar value.
Measure: pIC50

Task: // map [2H]C([2H])([2H])NC1=NC(=O)[C@]2(CCc3ncccc32)c2cc(C(C)(F)F)ccc21 to recorded pIC50 (system: Cytochrome P450 2C19 (Homo sapiens))
Output: < 5.00

====

Test details: Clearance rate in male ICR mouse at 2 mg/kg, iv measured upto 24 hrs by LC-MS/MS analysis
Format: ADME, organism-based
Applied conditions: in vivo
Measure: clearance (mL/min/kg)

{"Smiles notation": "[2H]C([2H])([2H])NC1=NC(=O)[C@]2(CCc3ncccc32)c2cc(C(C)(F)F)ccc21", "clearance [mL/min/kg]": 9.12}
{"Smiles notation": "[2H]C([2H])([2H])NC1=NC(=O)[C@]2(CCc3ncccc32)c2cc(C(F)(F)F)ccc21", "clearance [mL/min/kg]": 7.98}

====

Test details: Half life in male ICR mouse at 10 mg/kg, po and 2 mg/kg, iv measured upto 24 hrs
Assay type: ADME, organism-based
Applied conditions: in vivo
Measure: half-life (h)

A. [2H]C([2H])([2H])NC1=NC(=O)[C@]2(CCc3ncccc32)c2cc(C(C)(F)F)c(F)cc21
B. [2H]C([2H])([2H])NC1=NC(=O)C2(CCc3ncccc32)c2cc(C(F)(F)F)ccc21 (racemic)
Task: When A and B are compared, which has the higher number for half-life? # reply format: chosen label
Output: B

a. [2H]C([2H])([2H])NC1=NC(=O)[C@]2(CCc3ncccc32)c2cc(C3CC3)ccc21
b. CNC1=NC(=O)C2(CCc3ncccc32)c2cc(C(F)(F)F)ccc21 (racemic)
c. [2H]C([2H])([2H])NC1=NC(=O)[C@]2(CCc3ncccc32)c2cc(C3CC3)c(F)cc21
Task: # rank by half-life, ascending (min first) Provide the labels, sequenced as the question asks.
Output: a, c, b

====

Test details: AUCinf in male ICR mouse at 2 mg/kg, iv measured upto 24 hrs by LC-MS/MS analysis
Type: ADME, organism-based
Applied conditions: in vivo
Measure: AUC(0-inf) (ng·h/mL)

{"Smiles notation": "[2H]C([2H])([2H])NC1=NC(=O)[C@]2(CCc3ncccc32)c2cc(C(F)(F)F)ccc21", "Measure": "AUC(0-inf)", "Reported": 4190}
{"Smiles notation": "[2H]C([2H])([2H])NC1=NC(=O)[C@]2(CCc3ncccc32)c2cc(C(C)(F)F)ccc21", "Measure": "AUC(0-inf)", "Reported": 3660}

====

Test details: Microsomal metabolic stability in mouse liver microsomes assessed as half life
Type: ADME, Microsome
Below, each of the molecules is paired with its reported half-life value.

{"Smiles notation": "[2H]C([2H])([2H])NC1=NC(=O)[C@]2(CCc3ncccc32)c2cc(C(C)(F)F)ccc21", "half-life": "> 2.46 h"}

The record that follows has no half-life shown yet.
Task: // lookup half-life for [2H]C([2H])([2H])NC1=NC(=O)[C@]2(CCc3ncccc32)c2cc(C(F)(F)F)ccc21
Output: > 3.1 h
